# Test system: INS-1E rat beta cells, no cytokines, CellTiter-Glo ATP, 48 h
# protocol details: cytokine-free beta-cell viability effect – INS-1E rat cells, ATP luminescence, cherry pick, counter-screen for beta-cell apoptosis protection project, dose response (AID 463229)
parameter: AC50

Answered examples (5):
>>> df
                                   compound  parameter  obs_value
0        O=C(Nc1ccccc1O)C(c1ccccc1)c1ccccc1       AC50    6.92 µM
1  COc1nc(Nc2nc3ccccc3c(=O)[nH]2)nc2ccc(C)cc12       AC50    2.31 µM
2  Cc1ccc(S(=O)(=O)/N=C2\C(=O)c3ccccc3C([O-])=C2n2cc[n+](CCC(C)C)c2)cc1       AC50    16.7 µM
3  CCC[C@@H](CN1CCC[C@H]1CN1C(N)=NC[C@@H]1Cc1ccccc1)N1C[C@@H]([C@H](C)CC)N(CCCC2CCCC2)C1=N       AC50    7.72 µM
4  CC1C/C(=C/c2ccncc2)C(=O)/C(=C/c2ccncc2)C1 (stereo not given)       AC50    4.62 µM

Consider the additional compound presented here.
[in] Identify measured AC50 corresponding to Cc1ccc(Nc2c(-c3ccccn3)nc3cc(C)ccn23)cc1
[out] 7.49 µM

###

# System: INS-1E rat beta cells, no cytokines, CellTiter-Glo ATP, 48 h
# protocol details: cytokine-free beta-cell viability effect – INS-1E rat cells, ATP luminescence, cherry pick, counter-screen for beta-cell apoptosis protection project, dose response (AID 463229)
parameter: AC50

>>> print(df.to_string())
                                 compound  obs_value
0  Cc1ccc(-c2c[n+]3c(n2-c2ccccc2)CCC3)cc1    2.02 µM
1      C/C(=N\NC(=O)c1cccc(Br)c1)c1ccccn1    1.32 µM

[in] State measured AC50 of the compound O=C1C(=O)c2c(C(=O)c3ccccc3)coc2-c2ccccc21 with INS-1E rat beta cells, no cytokines, CellTiter-Glo ATP, 48 h.
[out] 7.21 µM

[in] // output AC50; input CCOC(=O)c1c(NC(=O)c2cc(-c3ccc(Cl)s3)nc3ccccc23)sc(C(N)=O)c1C ; system INS-1E rat beta cells, no cytokines, CellTiter-Glo ATP, 48 h
[out] 11.5 µM

[in] Report AC50 on INS-1E rat beta cells, no cytokines, CellTiter-Glo ATP, 48 h for this entry: CN1/C(=C\C(=O)C[n+]2ccc(C(=O)c3ccccc3)cc2)C(C)(C)c2ccccc21
[out] 1.26 µM

[in] Identify measured AC50 obtained with INS-1E rat beta cells, no cytokines, CellTiter-Glo ATP, 48 h for O=C(OCn1ncc(Br)c(Br)c1=O)c1ccc(F)cc1 .
[out] 5.09 µM

[in] Look up INS-1E rat beta cells, no cytokines, CellTiter-Glo ATP, 48 h data: AC50 of COc1cccc(/C=N/NC(=O)c2ccoc2C)c1O , then report it.
[out] 11 µM

###

The following compounds are listed with their measured AC50 values.
# Test system: INS-1E rat beta cells, no cytokines, CellTiter-Glo ATP, 48 h
# protocol details: cytokine-free beta-cell viability effect – INS-1E rat cells, ATP luminescence, cherry pick, counter-screen for beta-cell apoptosis protection project, dose response (AID 463229)

>>> df
                                   compound                              study_system  obs_value
0  CCC(=O)NC(c1cc(Cl)c2cccnc2c1O)C(C)C (stereo not drawn)  INS-1E rat beta cells, no cytokines, CellTiter-Glo ATP, 48 h     7.3 µM
1  O=C(Nc1ccc(OC(F)(F)F)cc1)Nc1cccc([N+](=O)[O-])c1  INS-1E rat beta cells, no cytokines, CellTiter-Glo ATP, 48 h     3.8 µM

[in] For the compound CNC[C@@H](Cc1ccccc1)NC[C@@H](CC1CCCCC1)NCCCc1ccccc1 , give its measured AC50 value.
[out] 7.41 µM

[in] Give a short answer stating reported AC50 for Cn1c2c(c(=O)n(C)c1=O)C(C(F)(F)F)(C(F)(F)F)N=C(c1ccc(Cl)cc1)N2 .
[out] 0.56 µM

[in] Could you please provide reported AC50 for C=C1C(=O)O[C@@H]2C[C@@H](C)[C@@H]3C=CC(=O)[C@@]3(C)[C@@H](O)[C@H]12 ? Thanks!
[out] 2.02 µM

###

# Tested on: INS-1E rat beta cells, no cytokines, CellTiter-Glo ATP, 48 h
# protocol details: cytokine-free beta-cell viability effect – INS-1E rat cells, ATP luminescence, cherry pick, counter-screen for beta-cell apoptosis protection project, dose response (AID 463229)
parameter: AC50

The examples below pair each entry with its known result.
>>> print(df.to_string())
                      smiles_representation                              study_system  obs_value
0  COc1ccc(-c2nn(-c3ccccc3)cc2C(=O)OCC(=O)c2ccc(C)c([N+](=O)[O-])c2)cc1  INS-1E rat beta cells, no cytokines, CellTiter-Glo ATP, 48 h     866 nM
1   CCN(CC)c1ccc(/C=N/NC(=O)c2cnccn2)c(O)c1  INS-1E rat beta cells, no cytokines, CellTiter-Glo ATP, 48 h    2010 nM
2  CCN(CC)Cc1c(O)ccc2c1O/C(=C\C=C\c1ccccc1)C2=O  INS-1E rat beta cells, no cytokines, CellTiter-Glo ATP, 48 h   14400 nM
3     C/C(=N\NC(=O)c1cc2ccccc2cc1O)c1ccccn1  INS-1E rat beta cells, no cytokines, CellTiter-Glo ATP, 48 h    2660 nM

Next compound, AC50 to be filled in.
[in] Under INS-1E rat beta cells, no cytokines, CellTiter-Glo ATP, 48 h, report AC50 for O=C(COc1ccccc1-c1ccccc1)N/N=C/c1ccc2ccccc2c1
[out] 8670 nM

###

# Tested on: INS-1E rat beta cells, no cytokines, CellTiter-Glo ATP, 48 h
# protocol details: cytokine-free beta-cell viability effect – INS-1E rat cells, ATP luminescence, cherry pick, counter-screen for beta-cell apoptosis protection project, dose response (AID 463229)
parameter: AC50

Would you please look over these solved cases?
                                   molecule  obs_value
0  NS(=O)(=O)c1ccc(N/N=C2/CCCCC2C2CCCCC2)c([N+](=O)[O-])c1 (stereo not given)     8.1 µM
1  CNC[C@@H](CC1CCCCC1)NC[C@H](CC(C)C)NCCc1cccc(C(F)(F)F)c1     4.4 µM
2           CCCCOCCCNc1ncnc2c1[nH]c1ccccc12    2.24 µM
3  CCN1CCN(c2ccc(S(=O)(=O)N3CCCCC3)cc2NC(=O)c2ccc([N+](=O)[O-])s2)CC1    6.94 µM
4   CCSCCc1nnc(NC(=O)Nc2cccc(C(F)(F)F)c2)s1    4.25 µM
5  O=C(c1cc(-c2ccccc2Cl)nc2ccccc12)N1CCN(c2ccccn2)CC1    4.44 µM

[in] Consider the molecule Cc1ccc(-c2cc3cccc[n+]3cc2-c2ccc(C)cc2)cc1 tested on INS-1E rat beta cells, no cytokines, CellTiter-Glo ATP, 48 h; state its AC50.
[out] 0.566 µM

[in] Look up INS-1E rat beta cells, no cytokines, CellTiter-Glo ATP, 48 h data: AC50 of O=C(NC(NC(=S)Nc1ccccc1)C(Cl)(Cl)Cl)c1cccc(Cl)c1 (stereo not given) , then report it.
[out] 13.9 µM

[in] State measured AC50 of the molecule COc1ccc2nc(/C(C#N)=C\c3ccc(Oc4ccc([N+](=O)[O-])cn4)cc3)[nH]c2c1 with INS-1E rat beta cells, no cytokines, CellTiter-Glo ATP, 48 h.
[out] 6.77 µM

[in] Provide AC50, tested on INS-1E rat beta cells, no cytokines, CellTiter-Glo ATP, 48 h, for S=C(Nc1ccc(Nc2ccccc2)cc1)Nc1ccccn1 .
[out] 11.5 µM

###

# Test system: INS-1E rat beta cells, no cytokines, CellTiter-Glo ATP, 48 h
# protocol details: cytokine-free beta-cell viability effect – INS-1E rat cells, ATP luminescence, cherry pick, counter-screen for beta-cell apoptosis protection project, dose response (AID 463229)
parameter: AC50

[in] For the compound Cc1cc(Nc2nc3ccccc3nc2Cl)n(-c2ccc([N+](=O)[O-])cc2)n1 , report AC50.
[out] 12 µM

###

Parameter: AC50. Scope: all listed entries.
# System: INS-1E rat beta cells, no cytokines, CellTiter-Glo ATP, 48 h
# protocol details: cytokine-free beta-cell viability effect – INS-1E rat cells, ATP luminescence, cherry pick, counter-screen for beta-cell apoptosis protection project, dose response (AID 463229)

The cases that follow already have their AC50 on record.
                                   compound  parameter  obs_value
0  CCOc1ccc(S(=O)(=O)N2CCCCC2)cc1NC(=O)CN1CCCC1c1cccs1 (stereo not given)       AC50    5.24 µM
1    CCN(CC)c1ccc(/C=N/NC(=O)c2ccco2)c(O)c1       AC50    2.11 µM

[in] Read the entry Cc1cc(C)nc(SCC(=O)Nc2ccnc3ccccc23)n1 and write its reported AC50.
[out] 7.55 µM

[in] For the compound Cc1ccn2c(Nc3ccccc3C)c(-c3ccccn3)nc2c1 , give its measured AC50 value.
[out] 9.55 µM

[in] Name the recorded AC50 of the item N=c1c2c(-c3ccccc3)c(-c3ccccc3)n(Cc3ccco3)c2ncn1CCCN1CCOCC1 in your answer.
[out] 16.2 µM

[in] Provide one value: measured AC50 of COc1cc(C(=O)Oc2ccccc2/C=N/NC(=O)c2ccc(C)c(Cl)c2)cc(OC)c1OC
[out] 12.6 µM

Cited source: PubChem BioAssay AID463229
